Cited source for all entries: patent US20080242870A1

1τ by entry:
Test: Luminescence lifetime by TCSPC (Example 1)
Assay type: physicochemical
Details: Acetone (20.1); TCSPC 370 nm pulsed LED
Give the number; ns is assumed, so skip it.

CCCCCCCCn1c(=O)c2cc3cc4c(-c5ccccc5)c5c(=O)n(CCCCCCCC)c(=O)c5cc4cc3c(-c3ccccc3)c2c1=O	7.29

Using known records, supply 1τ for CCCCCCCCn1c(=O)c2c(-c3ccccc3)c3cc4c(-c5ccccc5)c5c(=O)n(CCCCCCCC)c(=O)c5c(-c5ccccc5)c4cc3c(-c3ccccc3)c2c1=O
3.34

* * *

Test: Radiative quantum yield against standards (Example 1)
Format: physicochemical
Conditions: CHCl3 (4.8)
API: label(entry) gives true if the entry's Φr is strictly smaller than 0.06; on equality or larger values it gives false.

CCCCCCOc1ccc(-n2c(=O)c3cc4cc5c(-c6ccc(C#N)cc6)c6c(=O)n(-c7ccc(OCCCCCC)cc7)c(=O)c6cc5cc4c(-c4ccc(C#N)cc4)c3c2=O)cc1	true

A record lists CCCCCCOc1ccc(-n2c(=O)c3cc4cc5c(-c6ccccc6)c6c(=O)n(-c7ccc(OCCCCCC)cc7)c(=O)c6cc5cc4c(-c4ccccc4)c3c2=O)cc1 . Is its Φr below 0.06?
true

Strictly below 0.06 in Φr? CCCCCCOc1ccc(-n2c(=O)c3c(-c4ccccc4)c4cc5c(-c6ccccc6)c6c(=O)n(-c7ccc(OCCCCCC)cc7)c(=O)c6c(-c6ccccc6)c5cc4c(-c4ccccc4)c3c2=O)cc1
false

Does the reported Φr of the following compound sit strictly below 0.06? CCCCCCCCn1c(=O)c2c(-c3ccccc3)c3cc4c(-c5ccccc5)c5c(=O)n(CCCCCCCC)c(=O)c5c(-c5ccccc5)c4cc3c(-c3ccccc3)c2c1=O
false

Could you please tell me whether Φr recorded for CCCCCCOc1ccc(-n2c(=O)c3cc4cc5c(-c6ccc(OC)cc6)c6c(=O)n(-c7ccc(OCCCCCC)cc7)c(=O)c6cc5cc4c(-c4ccc(OC)cc4)c3c2=O)cc1 is less than 0.06?
false

Please state whether Φr is below 0.06 for CCCCCCCCn1c(=O)c2cc3cc4c(-c5ccccc5)c5c(=O)n(CCCCCCCC)c(=O)c5cc4cc3c(-c3ccccc3)c2c1=O
false

* * *

Assay: Absorption spectra of anthracene diimides in solvents of increasing polarity (Example 1)
Assay type: physicochemical
Conditions: Acetone (20.1)
Documented Abs. λmax across a set of compounds
The answer consists of two parts: a number and, after it, its unit.

// worked examples, Abs. λmax included
CCCCCCOc1ccc(-n2c(=O)c3c(-c4ccccc4)c4cc5c(-c6ccccc6)c6c(=O)n(-c7ccc(OCCCCCC)cc7)c(=O)c6c(-c6ccccc6)c5cc4c(-c4ccccc4)c3c2=O)cc1	429 nm
CCCCCCCCn1c(=O)c2c(-c3ccccc3)c3cc4c(-c5ccccc5)c5c(=O)n(CCCCCCCC)c(=O)c5c(-c5ccccc5)c4cc3c(-c3ccccc3)c2c1=O	427 nm

Read the entry CCCCCCOc1ccc(-n2c(=O)c3cc4cc5c(-c6ccc(OC)cc6)c6c(=O)n(-c7ccc(OCCCCCC)cc7)c(=O)c6cc5cc4c(-c4ccc(OC)cc4)c3c2=O)cc1 and write its reported Abs. λmax.
426 nm

* * *

Experiment: Radiative quantum yield against standards (Example 1)
Format: physicochemical
Settings: C2H4Cl2 (10.7)
Label T when Φr is strictly below 0.2; at or above that, label F.

CCCCCCOc1ccc(-n2c(=O)c3c(-c4ccccc4)c4cc5c(-c6ccccc6)c6c(=O)n(-c7ccc(OCCCCCC)cc7)c(=O)c6c(-c6ccccc6)c5cc4c(-c4ccccc4)c3c2=O)cc1	T
CCCCCCOc1ccc(-n2c(=O)c3cc4cc5c(-c6ccc(OC)cc6)c6c(=O)n(-c7ccc(OCCCCCC)cc7)c(=O)c6cc5cc4c(-c4ccc(OC)cc4)c3c2=O)cc1	T

For CCCCCCCCn1c(=O)c2cc3cc4c(-c5ccccc5)c5c(=O)n(CCCCCCCC)c(=O)c5cc4cc3c(-c3ccccc3)c2c1=O , is the recorded Φr below the cut-off of 0.2?
F

Field: below-cutoff. Rule: recorded Φr strictly less than 0.2. Subject: CCCCCCCCn1c(=O)c2c(-c3ccccc3)c3cc4c(-c5ccccc5)c5c(=O)n(CCCCCCCC)c(=O)c5c(-c5ccccc5)c4cc3c(-c3ccccc3)c2c1=O
F

I'd appreciate it if you could check whether CCCCCCOc1ccc(-n2c(=O)c3cc4cc5c(-c6ccc(C#N)cc6)c6c(=O)n(-c7ccc(OCCCCCC)cc7)c(=O)c6cc5cc4c(-c4ccc(C#N)cc4)c3c2=O)cc1 has Φr smaller than 0.2.
T

Determine whether this compound shows Φr lower than 0.2 (ties excluded): CCCCCCOc1ccc(-n2c(=O)c3cc4cc5c(-c6ccccc6)c6c(=O)n(-c7ccc(OCCCCCC)cc7)c(=O)c6cc5cc4c(-c4ccccc4)c3c2=O)cc1
T

* * *

Experiment: Radiative quantum yield against standards (Example 1)
Type: physicochemical
Settings: Toluene (2.4)
experimental.endpoint: Φr
Give the value as a plain number.

Illustrative cases are given below, each with its answer.
CCCCCCOc1ccc(-n2c(=O)c3cc4cc5c(-c6ccccc6)c6c(=O)n(-c7ccc(OCCCCCC)cc7)c(=O)c6cc5cc4c(-c4ccccc4)c3c2=O)cc1	0.066
CCCCCCCCn1c(=O)c2cc3cc4c(-c5ccccc5)c5c(=O)n(CCCCCCCC)c(=O)c5cc4cc3c(-c3ccccc3)c2c1=O	0.35

Name the recorded Φr of the item CCCCCCOc1ccc(-n2c(=O)c3c(-c4ccccc4)c4cc5c(-c6ccccc6)c6c(=O)n(-c7ccc(OCCCCCC)cc7)c(=O)c6c(-c6ccccc6)c5cc4c(-c4ccccc4)c3c2=O)cc1 in your answer.
0.21

* * *

Abs. λmax reference
Assay: Absorption spectra of anthracene diimides in solvents of increasing polarity (Example 1)
Type: physicochemical
Details: Acetone (20.1)
Express your answer as a number followed by its unit.

Examples with answers:
CCCCCCOc1ccc(-n2c(=O)c3cc4cc5c(-c6ccc(C#N)cc6)c6c(=O)n(-c7ccc(OCCCCCC)cc7)c(=O)c6cc5cc4c(-c4ccc(C#N)cc4)c3c2=O)cc1	423 nm
CCCCCCCCn1c(=O)c2cc3cc4c(-c5ccccc5)c5c(=O)n(CCCCCCCC)c(=O)c5cc4cc3c(-c3ccccc3)c2c1=O	421 nm

Specify measured Abs. λmax for CCCCCCOc1ccc(-n2c(=O)c3cc4cc5c(-c6ccccc6)c6c(=O)n(-c7ccc(OCCCCCC)cc7)c(=O)c6cc5cc4c(-c4ccccc4)c3c2=O)cc1 .
423 nm

* * *

In this section we review reported Φr values for a set of molecules.
Experiment: Radiative quantum yield against standards (Example 1)
Assay type: physicochemical
Conditions: Ethyl Acetate (6.02)
Returns: the value as a bare number; no unit string appended.

Identify measured Φr associated with CCCCCCOc1ccc(-n2c(=O)c3cc4cc5c(-c6ccc(OC)cc6)c6c(=O)n(-c7ccc(OCCCCCC)cc7)c(=O)c6cc5cc4c(-c4ccc(OC)cc4)c3c2=O)cc1
0.028

Query Φr for CCCCCCOc1ccc(-n2c(=O)c3cc4cc5c(-c6ccccc6)c6c(=O)n(-c7ccc(OCCCCCC)cc7)c(=O)c6cc5cc4c(-c4ccccc4)c3c2=O)cc1
0.015

* * *

Test: Radiative quantum yield against standards (Example 1)
Assay type: physicochemical
Settings: Ethyl Acetate (6.02)
As shown below, each of these molecules has a reported Φr value.
Keep it simple and answer with nothing but the number.

Please give measured Φr of the following entry: CCCCCCCCn1c(=O)c2cc3cc4c(-c5ccccc5)c5c(=O)n(CCCCCCCC)c(=O)c5cc4cc3c(-c3ccccc3)c2c1=O [DPO]
0.34

Using known records, supply Φr for CCCCCCOc1ccc(-n2c(=O)c3c(-c4ccccc4)c4cc5c(-c6ccccc6)c6c(=O)n(-c7ccc(OCCCCCC)cc7)c(=O)c6c(-c6ccccc6)c5cc4c(-c4ccccc4)c3c2=O)cc1 [TP]
0.023

Annotate the molecule CCCCCCOc1ccc(-n2c(=O)c3cc4cc5c(-c6ccc(C#N)cc6)c6c(=O)n(-c7ccc(OCCCCCC)cc7)c(=O)c6cc5cc4c(-c4ccc(C#N)cc4)c3c2=O)cc1 [DC] with its measured Φr.
0.012
